B1: MIA2 (parent)
chain: NSISSDKEATVPCTEILTEKKDTI

Variants of: B1
Assay: protein stability index of a GFP-peptide fusion (GPS, HEK-293T) (PSI 1-6); higher = more stable;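 also: lentivirally expressed fusions sorted by FACS into six bins by GFP to DsRed ratio, PSI derived from sequencing read proportions per bin multiplied by bin number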
Settings: c terminus: a fixed tail appended
Measured Endpoint: protein stability index
Reply: number alone, nothing else.

[[record]]
biopolymer_sequence = "NSISSDKEATVPCTEILTEKKDTY [I24Y]"
measured_value = 5.36


# protein stability index lookup, item NSISSDKEATVPCTEILTEKKDTN [I24N]
5.7

# protein stability index lookup, item NSISSDKEATVPCTEILTEKMDTI [K21M]
5.7

# protein stability index lookup, item NSIFSDKEATVPCTEILTEKKDTI [S4F]
4.76

# protein stability index lookup, item NSISSDKEATVPCTEILTEQKDTI [K20Q]
5.39
